experiment: binders of probe aFST on microarray, primary screen, stem cell growth factor project, biochemical, small-molecule microarray, fluorescence 635/667 (AID 1086); conditions: higher = more signal;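 also: score merges 667 nm fluorescence with signal-to-noise of each printed compound spot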

Compound | composite z-score
O=C(NCCO)C1=C[C@H](Oc2ccccc2I)[C@@H](O)[C@H](NCc2ccc(F)cc2)C1 | -0.459
COCC(=C=CC[C@@H](O)c1ccc(OCCO)cc1)C[C@@H](O)COCc1ccccc1 | 0.543
COC(=O)[C@@]1(Cc2ccc(OC)cc2)[C@@H]2[C@@H](CC(=O)[C@H]2CC(=O)C(=O)N2CCCC2)CN1C(=O)c1ccccc1 | 2.67
Cc1c(NC(=O)/C(C#N)=C/c2ccc(Cl)cc2)c(=O)n(-c2ccccc2)n1C | 0.52
C#CCN(C/C=C/c1ccccc1)[C@H](CO[Si](C)(C)C(C)(C)C)c1ccccc1 | -0.363
O=C1c2ccccc2[C@](Cc2ccccc2I)(C(=O)O)[C@H](c2ccc(CO)cc2)N1Cc1ccccc1 | -0.0119
CCCC[C@@H](O)C1=C(COC)Cn2c(=O)n(-c3ccccc3)c(=O)n2[C@H]1CO | -0.292
CCCC[C@@H]1C[C@H]1[C@@H](NC(=O)c1ccc(C(F)(F)F)cc1)c1ccc(C(=O)OC)cc1 | 0.568
C=C(COC)/C(=C/C[C@@H](OC(C)=O)c1ccccc1OCCO)c1cc(C(=O)OC)ccc1OC | 0.0581
C=CC[C@]1(C(=O)N(C)C)COC(c2ccc(OCCCO)cc2)=N1 | 0.459
C#CCN([C@H](/C=C/C1CC1)[C@@H](O)Cc1ccccc1)[C@@H](Cc1ccccc1)C(=O)OC | -0.0804
COC(=O)[C@@]1(Cc2ccc(F)cc2)[C@H]2c3cc(C(=O)N4CCCC4)n(CCO)c3C[C@H]2CN1C(=O)c1ccccc1 | 0.537
[N-]=[N+]=NCc1ccccc1[C@H]1OC(c2ccc(OCCCO)cc2)=N[C@@]1(Cc1ccccc1)C(=O)N1CCOCC1 | 1.8
COCCOC(=O)N1C(=O)[C@@]2(c3cc(C#CC4=CCCCC4)ccc31)[C@H](c1ccc(OCCO)cc1)N1[C@H](c3ccccc3)[C@H](c3ccccc3)OC(=O)[C@H]1[C@@H]2C(=O)N1CCCCCCC1 | 2.12
COCCOC(=O)N1C(=O)[C@@]2(c3cc(C#CCC(C(=O)OC)C(=O)OC)ccc31)[C@H](C(=O)N1CCCCCCC1)[C@H]1C(=O)O[C@H](c3ccccc3)[C@H](c3ccccc3)N1[C@@H]2c1ccccc1OCCO | 3.34
[N-]=[N+]=NCc1ccccc1C[C@@]1(C(=O)O)N=C(c2ccc(OCCCO)cc2)O[C@@H]1c1ccccc1CN=[N+]=[N-] | 0.663
COc1cc2c(cc1O)C(C1CC1)N(Cc1ccc([N+](=O)[O-])o1)CC2 (stereo unspecified) | 0.609
COc1ccc([Si](C)(C)[C@@H]2[C@@H](CC(=O)N(CCO)Cc3ccccc3)O[C@]3(C(=O)N(Cc4ccc(N5CCC5=O)cc4)c4ccccc43)[C@H]2C)cc1 | 2.26
C=C(CC1([C@@H](NP(=O)(c2ccccc2)c2ccccc2)[C@H]2C[C@@H]2CCN(C(=O)OCC)S(=O)(=O)c2ccc(C)cc2)CC1)c1ccccc1 | 1.5
C=C(CCCC)C(=O)CC[C@H](OC(C)=O)c1ccccc1OCCO | 0.167
COCCCNC(=O)[C@@H]1c2ccccc2C(=O)N(Cc2cc(C(F)(F)F)cc(C(F)(F)F)c2)[C@H]1c1ccc(CO)cc1 | 1.49
C=CCC(OC(C)=O)[C@@H]1[C@@H](N(Cc2ccc(-c3cccc(C(F)(F)F)c3)o2)C(=O)Cc2ccc(OC)cc2)c2cc(OCCCO)ccc2N1C(=O)c1ccc2ccccc2n1 (stereo partly specified) | 0.364
CCN(CC)c1ccc(N2CC=CC34O[C@@H]5C=CCOC(=O)[C@@H]5[C@H]3C(=O)N(CCCO)[C@@H]4C2=O)cc1 (stereo partly specified) | -0.504
Cc1c(-c2ccc(-c3ccc(Cl)c(Cl)c3)o2)nc(-c2ccccc2)c2c1CO[Si]2(C(C)C)C(C)C | -0.324
NC(=O)NCC#Cc1ccc2c(c1)[C@]1(C(=O)N2)[C@H](C(=O)Nc2nc3ccccc3s2)[C@H]2C(=O)O[C@H](c3ccccc3)[C@H](c3ccccc3)N2[C@@H]1c1ccc(OCCO)cc1 | 0.99
O=c1cccc(-c2ccccc2C(F)(F)F)o1 | 0.862
C[N+](C)(C)CCCCCCNC(=O)[C@H]1C[C@H]2C(=O)NCC(=O)N2[C@H]1c1cccc(OCCO)c1 | -0.393
CCCC=C(CCC)[C@@H](NC(=O)c1ccco1)c1ccc(C(=O)OC)cc1 | 0.594
CC(C)CNC(=O)[C@@H]1c2ccccc2C(=O)N(CC23CC4CC(CC(C4)C2)C3)[C@H]1c1ccc(CO)cc1 | 0.507
CC(C)[Si](C#CCCCC#N)(O[C@H](c1ccccc1)c1cn([C@H](C)c2ccccc2)nn1)C(C)C | 0.612
CCCCC(=C=CC[C@H](O)c1ccc(OCCO)cc1)C[C@H](O)c1ccccn1 | 0.763
